FYI, the data here is from patent US8067424B2.

System: CDK9/cyclin T complex (Homo sapiens, UniProt P50750)
Construct: purchased Proqinase GmbH, Germany
Sequence (P50750 whole entry): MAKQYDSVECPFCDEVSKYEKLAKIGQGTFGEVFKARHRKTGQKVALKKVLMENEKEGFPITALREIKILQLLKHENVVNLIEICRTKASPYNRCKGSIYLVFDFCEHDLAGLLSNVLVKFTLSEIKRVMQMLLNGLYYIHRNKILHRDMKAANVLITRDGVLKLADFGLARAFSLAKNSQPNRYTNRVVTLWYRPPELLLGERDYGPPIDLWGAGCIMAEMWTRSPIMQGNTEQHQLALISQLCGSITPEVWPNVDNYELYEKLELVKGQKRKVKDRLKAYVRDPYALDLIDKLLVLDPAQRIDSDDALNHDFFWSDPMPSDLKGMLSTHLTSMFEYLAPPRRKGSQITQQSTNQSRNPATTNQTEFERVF
Sequence (O60563 whole entry partner): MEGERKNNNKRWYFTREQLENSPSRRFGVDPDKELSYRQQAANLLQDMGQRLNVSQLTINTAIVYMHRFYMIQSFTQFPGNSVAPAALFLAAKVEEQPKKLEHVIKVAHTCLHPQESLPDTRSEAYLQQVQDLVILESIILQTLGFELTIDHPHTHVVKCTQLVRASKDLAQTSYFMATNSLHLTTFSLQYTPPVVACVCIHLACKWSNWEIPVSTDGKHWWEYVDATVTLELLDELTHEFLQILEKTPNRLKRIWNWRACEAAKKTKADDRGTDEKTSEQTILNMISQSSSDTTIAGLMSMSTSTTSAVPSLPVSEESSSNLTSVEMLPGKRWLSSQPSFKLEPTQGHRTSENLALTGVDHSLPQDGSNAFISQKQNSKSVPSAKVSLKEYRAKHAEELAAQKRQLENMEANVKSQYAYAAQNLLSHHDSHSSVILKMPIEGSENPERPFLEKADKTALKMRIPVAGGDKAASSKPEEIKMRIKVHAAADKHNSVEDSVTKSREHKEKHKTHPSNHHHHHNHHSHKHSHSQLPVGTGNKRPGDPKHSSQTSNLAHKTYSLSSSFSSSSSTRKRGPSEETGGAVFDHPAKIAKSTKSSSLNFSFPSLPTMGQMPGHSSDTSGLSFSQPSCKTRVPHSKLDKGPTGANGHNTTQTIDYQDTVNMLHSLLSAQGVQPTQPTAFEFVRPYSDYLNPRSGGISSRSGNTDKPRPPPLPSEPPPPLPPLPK
Procedure Text: CDK9/cyclin T kinase assay (as for CDK7)
Type: biochemical
Measurement Context: 100 nM; mean of three (standard deviation); read-out: CDK9 % remaining kinase activity after incubation with 100 nM of compound
Examples of molecules with documented remaining activity at 0.1 µM follow.
Write the answer as a number in %, unit excluded.

Solved cases (3 shown):
- Molecule: "CC(C)c1cnn2c(NCc3ccccc3)cc(N[C@@H](CO)CCCCCCc3ccccn3)nc12"
  System: "CDK9/cyclin T complex (Homo sapiens, UniProt P50750)"
  remaining activity at 0.1 µM / %: 99
- Molecule: "CC(C)c1cnn2c(NCc3ccccc3)cc(N[C@@H](CO)CCCCCN)nc12"
  System: "CDK9/cyclin T complex (Homo sapiens, UniProt P50750)"
  remaining activity at 0.1 µM / %: 86
- Molecule: "CC(C)c1cnn2c(NCc3ccccc3F)cc(NC(CO)CCCCCCCc3ccc(F)nc3)nc12 (centres unmarked)"
  System: "CDK9/cyclin T complex (Homo sapiens, UniProt P50750)"
  remaining activity at 0.1 µM / %: 100

The recorded remaining activity at 0.1 µM for `CC(C)c1cnn2c(NCc3ccccc3)cc(N[C@@H](CO)[C@@H](O)CO)nc12` is 57

The recorded remaining activity at 0.1 µM for `CC(C)c1cnn2c(NCc3ccccc3F)cc(N[C@@H](CO)CCCCCCc3ncccn3)nc12` is 100

The recorded remaining activity at 0.1 µM for `CC(C)c1cnn2c(NCc3ccccc3F)cc(N[C@@H](CO)CCCCCCc3ccc4ccccc4n3)nc12` is 51
